Tested on: First-order mesenteric arteries (MA1)
ASSAY OVERVIEW: Wire myography: force generation, dose response to phenylephrine in intact arteries
PARTICULARS: Mus musculus, E24 F/F+NS; read-out: EC50 force generation to PE
OUTCOME MEASURE: pEC50
Answers are plain numbers, as −log10 of the molar value.

Give reported pEC50 value for `CNC[C@H](O)c1cccc(O)c1`
6.40

* * *

System: First-order mesenteric arteries (MA1)
ASSAY OVERVIEW: Wire myography: force generation, dose response to phenylephrine in intact arteries
PARTICULARS: Mus musculus, 336 h, CON+HS (high salt 4% NaCl, 2 weeks); read-out: EC50 force generation to PE
OUTCOME MEASURE: EC50 (nM)
Give bare numbers, in nM.

Give the value of EC50 reported for the following: `CNC[C@H](O)c1cccc(O)c1`
1000

Sourced from patent US11607461B2
